Target: RAR-γ (Homo sapiens)
Construct: expressed in transfected cells; host or cells: COS-1 (African green monkey kidney cells), transient lipofection
Sequence (P13631 1-454): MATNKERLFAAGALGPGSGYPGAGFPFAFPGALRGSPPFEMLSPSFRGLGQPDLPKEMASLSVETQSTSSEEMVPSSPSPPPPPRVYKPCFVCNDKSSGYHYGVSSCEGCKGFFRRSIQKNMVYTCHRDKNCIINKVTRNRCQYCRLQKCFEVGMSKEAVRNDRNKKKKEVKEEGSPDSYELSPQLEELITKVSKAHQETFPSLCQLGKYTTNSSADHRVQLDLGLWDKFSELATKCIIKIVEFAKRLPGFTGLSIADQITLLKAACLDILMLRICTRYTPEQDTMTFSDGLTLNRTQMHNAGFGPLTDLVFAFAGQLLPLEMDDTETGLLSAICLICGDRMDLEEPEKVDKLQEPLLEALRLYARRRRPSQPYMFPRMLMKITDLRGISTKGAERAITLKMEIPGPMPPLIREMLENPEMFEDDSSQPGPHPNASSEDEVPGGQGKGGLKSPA
Experiment: Transcription accelerating activity through RARs (PLAP reporter in COS-1 cells)
Format: cell-based
Conditions: relative to ED30 of all-trans retinoic acid = 1, ED30 = concentration giving 30% of activity induced by 1 μM all-trans retinoic acid
Please provide measured Transcription accelerating activity Relative ED30 RAR-γ for the entries that follow.
Please give only the number in your answer, with no unit.

For record CCc1cc(F)cc2cc(-c3ccc(-c4ccc(C(=O)O)cc4)[nH]3)oc12 [Example 25] the listed Transcription accelerating activity Relative ED30 RAR-γ is 63

So for Cc1ccc(C)c2c1C=C(c1ccc(-c3ccc(C(=O)O)cc3)[nH]1)CO2 [Example 127] , the logged Transcription accelerating activity Relative ED30 RAR-γ turned out to be 3600

Data point: CC1=CCOc2ccc(-c3ccc(-c4ccc(C(=O)O)cc4)[nH]3)cc21 [Example 133] ; Transcription accelerating activity Relative ED30 RAR-γ = 780
